Provenance of the data: ChEMBL document CHEMBL2046292

Experiment: Half life of the compound in sodium phosphate buffer (10 mM, pH 7.0) at 37 degC containing methanol (10% v/v)
Type: physicochemical
measureName: half-life (h)
Entry rule: numbers only, all in h.

What value of measured half-life is listed for C/C1=C\[C@@H](O)C(=O)/C=C/C=C\c2csc(n2)[C@@H](C)NC(=O)C[C@@]2(CC1)[S+]([O-])SC(=O)[C@]2(C)O (stereo partly specified) ?
8
